- Assay method text: acute toxicity, oral, in mice
- Format: in vivo
- Condition notes: mouse, in vivo, po, LD50 (50% lethal dose), Table 1; orally in mice
- Protocol: Moreover, the introduction of substituent groups such as an alkoxyl group, an alkenyloxy group and hydroxyl group to the 5, 6, 7 or 8 position of the coumarin ring brings the decrease of toxicity. […] After normal female Slc: ddy mice 4 weeks old were purchased and fed preliminarily in this lavoratory for a week, these mice weighing 25-27 g. were used in the test. […] The numbers of dead animals were counted and the LD50 values in mg./kg. body weight were calculated by the method of Litchfield-Wilcoxon.
Reported metric: LD50 at 144 h (mg/kg)

>>> assay_value("CC(C)Oc1cccc2cc(-c3nnn[nH]3)c(=O)oc12")
2250
>>> assay_value("CCOc1cc(C)cc2cc(-c3nnn[nH]3)c(=O)oc12")
2360
>>> assay_value("CCOc1cccc2cc(-c3nnn[nH]3)c(=O)oc12")
2500
>>> assay_value("CCCCCCOc1cccc2cc(-c3nnn[nH]3)c(=O)oc12")
2650
>>> assay_value("CCCCOc1cccc2cc(-c3nnn[nH]3)c(=O)oc12")
2380
>>> assay_value("Cc1cc(OC(C)C)c2oc(=O)c(-c3nnn[nH]3)cc2c1")
2200
>>> assay_value("CCCCOc1cc(C)cc2cc(-c3nnn[nH]3)c(=O)oc12")
1870
>>> assay_value("CCCCCOc1cccc2cc(-c3nnn[nH]3)c(=O)oc12")
1330
>>> assay_value("Cc1ccc2oc(=O)c(-c3nnn[nH]3)c(C)c2c1 [J, reference compound]")
533
>>> assay_value("Cc1c(-c2nnn[nH]2)c(=O)oc2c(Cl)cccc12 [Compound I, reference compound]")
1040

---

Measured LD50 at 144 h values are reported for all entries that follow.
- Assay method text: acute toxicity, oral, in mice
- Format: in vivo
- Condition notes: mouse, in vivo, po, Table 4; oral, female Slc: ddy mice, 6 days observation, Litchfield-Wilcoxon; read-out: LD50
Reported metric: LD50 at 144 h

>>> assay_value("COc1cc2oc(=O)c(-c3nnn[nH]3)cc2cc1CC=C(C)C")
"500 to 1000 mg/kg"
>>> assay_value("CCCCCOc1cccc2cc(-c3nnn[nH]3)c(=O)oc12")
"1330 mg/kg"
>>> assay_value("CC(C)CCOc1cccc2cc(-c3nnn[nH]3)c(=O)oc12")
"1000 to 2000 mg/kg"
>>> assay_value("CCCCCCCCCCCCCCCCCCOc1cccc2cc(-c3nnn[nH]3)c(=O)oc12")
"2000 to 3000 mg/kg"
>>> assay_value("CCc1cc2cc(-c3nnn[nH]3)c(=O)oc2cc1OC")
"500 to 1000 mg/kg"
>>> assay_value("CCCCCCCCCCCCOc1cccc2cc(-c3nnn[nH]3)c(=O)oc12")
"2000 to 3000 mg/kg"
>>> assay_value("C=CCOc1cccc2cc(-c3nnn[nH]3)c(=O)oc12")
"2000 to 3000 mg/kg"
>>> assay_value("CCOc1cccc2cc(-c3nnn[nH]3)c(=O)oc12")
"2500 mg/kg"
>>> assay_value("COc1cccc2cc(-c3nnn[nH]3)c(=O)oc12")
"2000 to 3000 mg/kg"
>>> assay_value("CCCCCCCCCCCCCCCOc1cccc2cc(-c3nnn[nH]3)c(=O)oc12")
"2000 to 3000 mg/kg"
>>> assay_value("CCCCOc1cccc2cc(-c3nnn[nH]3)c(=O)oc12")
"2380 mg/kg"
>>> assay_value("CCCOc1ccc2cc(-c3nnn[nH]3)c(=O)oc2c1")
"2000 to 3000 mg/kg"
